Each record here notes measured whole-cell Cl− current.
system: calcium-activated Cl− channels; experiment: Whole-cell Cl− current in CFPAC-1 cells (bio-assay for Ins(3,4,5,6)P4); format: cell-based, human; conditions: 100 μM introduced into CFPAC-1 cells; control 54±3 pA/pF
Numbers only here, please. The scale is pA/pF.

Look over these answered cases.
COMPOUND	UNIT SPEC	VALUE MEASURED
O=P(O)(O)O[C@H]1[C@H](O)[C@H](O)[C@H](OP(=O)(O)O)[C@@H](OP(=O)(O)O)[C@@H]1O [Ins(3,4,6)P3, inositol 3,4,6-trisphosphate]	pA/pF	68
O=P(O)(O)OC1[C@@H](OP(=O)(O)O)[C@@H](O)C(O)[C@H](O)[C@H]1OP(=O)(O)O (stereo partly shown) [Ins(3,4,5)P3, inositol 3,4,5-trisphosphate]	pA/pF	61
O=P(O)(O)OC1C(O)C(O)C(O)C(OP(=O)(O)O)C1OP(=O)(O)O (stereo not shown) [Ins(4,5,6)P3, inositol 4,5,6-trisphosphate]	pA/pF	56

Here's the next entry for you.
Short answer please: whole-cell Cl− current, calcium-activated Cl− channels, entry O=P(O)(O)O[C@@H]1[C@@H](O)[C@H](OP(=O)(O)O)[C@@H](OP(=O)(O)O)[C@H](O)[C@@H]1O [Ins(3,5,6)P3, inositol 3,5,6-trisphosphate] 60

====

biological target: Recombinant human Ins(3,4,5,6)P4 1-kinase (Homo sapiens); construct: made in house; host or cells: E. coli; assay: Inositol phosphate kinase activity assay (HPLC); type: biochemical
ASSAY METRIC: whether the enzyme phosphorylates the inositol phosphate

COMPOUND	VALUE MEASURED
O=P(O)(O)O[C@H]1[C@H](O)[C@@H](OP(=O)(O)O)[C@H](OP(=O)(O)O)[C@@H](OP(=O)(O)O)[C@H]1O	does not phosphorylate
O=P(O)(O)O[C@@H]1C(O)[C@H](OP(=O)(O)O)[C@@H](OP(=O)(O)O)C(O)[C@H]1OP(=O)(O)O (stereo partly shown)	does not phosphorylate
O=P(O)(O)O[C@H]1[C@H](OP(=O)(O)O)[C@@H](OP(=O)(O)O)[C@@H](O)[C@@H](O)[C@@H]1OP(=O)(O)O [Ins(1,4,5,6)P4, inositol 1,4,5,6-tetrakisphosphate]	does not phosphorylate
